Values from paper PMC12660843

Molecular target: 3-pTza peptide (Biotin-AminocaproicAcid-A.G.A.G.3-pTza.A.G.A.G)
Assay: BLI; Octet HTX; biotinylated peptides captured on streptavidin biosensors at 20 nM; IgG in solution, 20-200 nM; 1x HBS-T, 1% BSA
pKd: −log10 of the molar value.
QUANTITY_MEASURED: pKd

Which pKd is listed for hSC44.20.N32Y^L IgG (antibody, V domains shown) VH: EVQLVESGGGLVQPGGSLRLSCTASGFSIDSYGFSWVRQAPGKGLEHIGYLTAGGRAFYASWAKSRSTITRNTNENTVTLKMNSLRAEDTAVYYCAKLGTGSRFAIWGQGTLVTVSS VL: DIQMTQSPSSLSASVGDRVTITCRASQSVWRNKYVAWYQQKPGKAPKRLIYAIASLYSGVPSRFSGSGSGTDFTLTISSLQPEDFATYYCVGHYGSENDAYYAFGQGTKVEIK ?
> 12.00
